- experiment notes: CHI Log D procedure
- Assay type: physicochemical
- settings: pH 7.4
quantity name: CHI Log D
Answers are plain numbers.

In the examples that follow, each entry is paired with its recorded CHI Log D.
### Prompt Please give the measured CHI Log D for this compound: COc1cccc(C[C@@H]2NC(=O)[C@H](C)NC(=O)[C@H](C)NC(=O)[C@H](CC(=O)O)NC(=O)[C@H](CC(=O)O)NC(=O)[C@](C)(NC(=O)[C@H](C)NC(=O)[C@H](CC(=O)O)NC(=O)[C@H](Cc3ccccc3)NC(C)=O)CCCCCCC=CCOC(=O)N3CC[C@@](C(=O)N[C@@H](Cc4ccccc4)C(=O)N[C@@H](Cc4c[nH]c5ccccc45)C(=O)N[C@@H](CCC(N)=O)C(N)=O)(C3)NC(=O)[C@H](C(C)C)NC2=O)c1 [I-103]
### Response 1.268

### Prompt Please give the measured CHI Log D for this compound: CC(=O)N1CCC[C@]12CC=CCCCC1(CCCC=CCCCCCC[C@@](C)(C(=O)N[C@@H](Cc3ccccc3)C(=O)N[C@@H](C)C(=O)N[C@@H](CCC(N)=O)C(N)=O)NC(=O)[C@H](C(C)C)NC(=O)[C@H](Cc3ccccc3)NC(=O)[C@H](C)NC(=O)[C@H](C)NC(=O)[C@H](CC(=O)O)NC(=O)[C@H](CC(=O)O)NC1=O)NC(=O)[C@H](C)NC(=O)[C@H](CC(=O)O)NC2=O (some centres unmarked) [I-358]
### Response 1.882

### Prompt Please give the measured CHI Log D for this compound: CC(=O)N1CCC[C@]12CC=CCCCC1(CCCC=CCCCOC(=O)N3CC[C@@](C(=O)N[C@@H](Cc4ccccc4)C(=O)N[C@@H](Cc4csc5ccccc45)C(=O)N[C@@H](Cc4c[nH]cn4)C(N)=O)(C3)NC(=O)[C@H](CC(N)=O)NC(=O)[C@H](Cc3ccccc3)NC(=O)[C@H](C)NC(=O)[C@H](C)NC(=O)[C@H](CCC(=O)O)NC(=O)[C@H](CC(=O)O)NC1=O)NC(=O)[C@H](CC(C)(C)C)NC(=O)[C@H](CC(=O)O)NC2=O (some centres unmarked) [I-693]
### Response 2.184

### Prompt Please give the measured CHI Log D for this compound: CC(=O)N1CCC[C@]12CC=CCCCC1(CCCC=CCCCCCC[C@@](C)(C(=O)N[C@@H](Cc3cn(C)cn3)C(=O)N[C@@H](Cc3csc4ccccc34)C(=O)N[C@@H](CCC(N)=O)C(N)=O)NC(=O)[C@H](CC(N)=O)NC(=O)[C@H](Cc3ccccc3)NC(=O)[C@H](C)NC(=O)[C@H](C)NC(=O)[C@H](CCC(=O)O)NC(=O)[C@H](CC(=O)O)NC1=O)NC(=O)[C@H](C)NC(=O)[C@H](CC(=O)O)NC2=O (some centres unmarked) [I-440]
### Response 1.613

---
### Prompt Please give the measured CHI Log D for this compound: CC(=O)N1CCC[C@]12CC=CCCCC1(CCCC=CCCCCCC[C@@](C)(C(=O)N[C@@H](Cc3ccccc3)C(=O)N[C@@H](Cc3csc4ccccc34)C(=O)N[C@@H](CCC(N)=O)C(N)=O)NC(=O)[C@H](C)NC(=O)[C@H](Cc3cccc(C(F)(F)F)c3)NC(=O)[C@H](C)NC(=O)[C@H](C)NC(=O)[C@H](CC(=O)O)NC(=O)[C@H](CC(=O)O)NC1=O)NC(=O)[C@H](C)NC(=O)[C@H](CC(=O)O)NC2=O (some centres unmarked) [I-376]
### Response 2.296
